- assay_protocol: acute toxicity (LD 50)
- protocol_conditions: in vivo, ip
For each record, write down the corresponding LD50.
The reply should be a number in mg/kg, with the unit left off.

# query: LD50 of entry CN1CCN(CCC2Cc3c(Cl)cccc3C(c3ccccc3)=N2)CC1 (centres unmarked) [compound 106]
145

# query: LD50 of entry COc1ccccc1C1=NC(CCN(C)C)Cc2ccccc21 (centres unmarked) [compound 28]
42

# query: LD50 of entry CN(C)CCC1Cc2ccccc2C(c2ccc([N+](=O)[O-])cc2)=N1 (centres unmarked) [compound 35]
80

# query: LD50 of entry COc1ccc2c(c1)C(c1ccccc1)=NC(CN1CCN(C)CC1)C2 (centres unmarked) [compound 100]
140

# query: LD50 of entry CN(C)CC1COc2ccccc2C(c2ccc(Cl)cc2)=N1 (centres unmarked) [compound 44]
130

====

- assay_protocol: acute toxicity (LD 50)
- protocol_conditions: in vivo, ip
# note: boundary value 70 mg/kg maps to n; LD50 below it maps to y

Threshold test, LD50 < 70 mg/kg: CN(C)CCC1COc2ccccc2C(c2ccccc2)=N1 (centres unmarked) [compound 45]
n

Threshold test, LD50 < 70 mg/kg: CN(C)CC1Cc2ccccc2C(c2ccccc2F)=N1 (centres unmarked) [Code Number 8]
y

Threshold test, LD50 < 70 mg/kg: CN(C)CCC1Cc2ccccc2C(c2cccnc2)=N1 (centres unmarked) [compound 108]
n

Threshold test, LD50 < 70 mg/kg: NCCC1Cc2ccccc2C(c2ccccc2)=N1 (centres unmarked) [compound 15]
y

====

For each record, write down the corresponding LD50.
- assay_protocol: acute toxicity (LD 50)
- protocol_conditions: in vivo, ip
- From the text: To illustrate the invention, there are shown in table IV below, the results obtained in these two tests and the acute toxicity (LD 50) of some compounds of formula (I).
Answer format: number, then unit.

# query: LD50 of entry CN(C)CCCC1Cc2ccccc2C(c2ccccc2)=N1 (centres unmarked) [compound 38]
85 mg/kg

# query: LD50 of entry CN(C)CCC1Cc2c(Cl)cccc2C(c2ccccc2)=N1 (centres unmarked) [compound 18]
70 mg/kg

# query: LD50 of entry CN(C)CC1COc2ccccc2C(c2ccccc2Cl)=N1 (centres unmarked) [compound 42]
70 mg/kg

# query: LD50 of entry Cc1ccc(C2=NC(CCN(C)C)Cc3ccccc32)cc1 (centres unmarked) [compound 33]
70 mg/kg

# query: LD50 of entry CN(C)CCCC1Cc2ccccc2C(c2ccccc2F)=N1 (centres unmarked) [compound 39]
100 mg/kg

====

For each record, write down the corresponding LD50.
- assay_protocol: acute toxicity (LD 50)
- protocol_conditions: in vivo, ip

# query: LD50 of entry CN(C)CC1Cc2ccccc2C(c2ccccc2)=N1 (stereo not shown) [compound 6]
41 mg/kg

# query: LD50 of entry Cc1ccc2c(c1)C(c1ccccc1)=NC(CN(C)C)C2 (stereo not shown) [compound 12]
50 mg/kg

# query: LD50 of entry CN(C)CC1Cc2ccc(F)cc2C(c2ccccc2)=N1 (stereo not shown) [compound 10]
60 mg/kg

# query: LD50 of entry CN(C)CCC1C=C(c2ccccc2)c2ccccc2C1 (stereo not shown) [Code Number 2]
110 mg/kg

# query: LD50 of entry CN1CCN(CC2Cc3c(Cl)cccc3C(c3ccccc3)=N2)CC1 (stereo not shown) [compound 94]
140 mg/kg

# query: LD50 of entry CN(C)CC1C=C(c2ccccc2)c2ccccc2C1 (stereo not shown) [Code Number 1]
62 mg/kg

# query: LD50 of entry COc1ccc2c(c1)C(c1ccccc1)=NC(CN(C)C)C2 (stereo not shown) [compound 13]
65 mg/kg

# query: LD50 of entry NCCC1Cc2ccccc2C(c2ccccc2F)=N1 (stereo not shown) [compound 20]
62 mg/kg

# query: LD50 of entry CN(C)CCC1C=C(c2ccccc2F)c2ccccc2C1 (stereo not shown) [compound 101]
93 mg/kg

# query: LD50 of entry CN(C)CCC1Cc2ccccc2C(c2ccc(F)cc2)=N1 (stereo not shown) [compound 24]
61 mg/kg

====

- assay_protocol: acute toxicity (LD 50)
- protocol_conditions: in vivo, ip
- Description: To illustrate the invention, there are shown in table IV below, the results obtained in these two tests and the acute toxicity (LD 50) of some compounds of formula (I).
measured_attribute: LD50 (mg/kg)
The reply should be a number in mg/kg, with the unit left off.

# query: LD50 of entry CN(C)CCC1Cc2ccccc2C(c2ccccc2Cl)=N1 (stereo not shown)
60

# query: LD50 of entry CN(C)CC1COc2ccccc2C(c2cccc(F)c2)=N1 (stereo not shown)
100

# query: LD50 of entry CN(C)CCC1Cc2ccccc2C(c2ccccc2Br)=N1 (stereo not shown)
77

# query: LD50 of entry CNCCC1Cc2ccccc2C(c2ccccc2)=N1 (stereo not shown)
65

# query: LD50 of entry CN(C)CCC1Cc2ccccc2C(C2CCCCC2)=N1 (stereo not shown)
82

# query: LD50 of entry COc1ccc(C2=NC(CCN(C)C)Cc3ccccc32)cc1 (stereo not shown)
70

# query: LD50 of entry COc1cc2c(cc1OC)C(c1ccccc1)=NC(CN(C)C)C2 (stereo not shown)
135

# query: LD50 of entry Cc1ccccc1C1=NC(CCN(C)C)Cc2ccccc21 (stereo not shown)
50

# query: LD50 of entry CN(C)CCC1Cc2ccccc2C(c2ccccn2)=N1 (stereo not shown)
94

# query: LD50 of entry Cc1ccc2c(c1)C(c1ccccc1)=NC(CN1CCOCC1)C2 (stereo not shown)
125

# query: LD50 of entry CN(C)CC1COc2ccccc2C(c2ccccc2F)=N1 (stereo not shown)
62

# query: LD50 of entry CN(C)CCC1Cc2ccccc2C(c2ccccc2[N+](=O)[O-])=N1 (stereo not shown)
77

# query: LD50 of entry COc1cc2c(cc1OC)C(c1ccccc1)=NC(CCN(C)C)C2 (stereo not shown)
165

# query: LD50 of entry CN(C)CCC1Cc2ccccc2C(c2ccc(Cl)cc2)=N1 (stereo not shown)
70

# query: LD50 of entry CN1CCN(CC2Cc3ccccc3C(c3ccccc3)=N2)CC1 (stereo not shown)
170

# query: LD50 of entry CCN(CC)CC1Cc2ccc(C)cc2C(c2ccccc2)=N1 (stereo not shown)
45

# query: LD50 of entry COc1cccc(C2=NC(CCN(C)C)Cc3ccccc32)c1 (stereo not shown)
78

# query: LD50 of entry CN(C)CC1COc2ccccc2C(c2ccccc2)=N1 (stereo not shown)
80

# query: LD50 of entry CN(C)CCC1Cc2ccc(Cl)cc2C(c2ccccc2)=N1 (stereo not shown)
95

# query: LD50 of entry CN(C)CCC1Cc2ccccc2C(c2cccc(F)c2)=N1 (stereo not shown)
55

# query: LD50 of entry Cc1ccc2c(c1)C(c1ccccc1)=NC(CN1CCCCC1)C2 (stereo not shown)
52

# query: LD50 of entry CN(C)CCC1Cc2ccccc2C(c2ccccc2F)=N1 (stereo not shown)
70

# query: LD50 of entry CN(C)CCC1Cc2ccccc2C(c2cccc(C(F)(F)F)c2)=N1 (stereo not shown)
62

# query: LD50 of entry CN(C)CC1Cc2ccc(Cl)cc2C(c2ccccc2F)=N1 (stereo not shown)
52

# query: LD50 of entry CN(C)CC1Cc2ccc(Cl)cc2C(c2ccccc2)=N1 (stereo not shown)
37

# query: LD50 of entry CNCCC1Cc2ccccc2C(c2ccccc2F)=N1 (stereo not shown)
70

# query: LD50 of entry Cc1cccc(C2=NC(CCN(C)C)Cc3ccccc32)c1 (stereo not shown)
67

# query: LD50 of entry CN(C)CCC1Cc2ccccc2C(c2ccccc2)=N1 (stereo not shown)
65

# query: LD50 of entry Cc1ccc2c(c1)C(c1ccccc1)=NC(CN1CCN(C)CC1)C2 (stereo not shown)
130

# query: LD50 of entry CN(C)CC1COc2ccccc2C(c2cccc(Cl)c2)=N1 (stereo not shown)
65

# query: LD50 of entry CN(C)CCC1Cc2ccccc2C(c2cccc(Cl)c2)=N1 (stereo not shown)
65
